Target Or Test System: TLR7 (Homo sapiens, UniProt Q9NYK1)
Construct: Human peripheral blood mononuclear cells (PBMCs) consist of lymphocytes, monocytes and dendritic cells that express TLR7, TLR8 and TLR9; endogenous in cells
Sequence (Q9NYK1 27-1049): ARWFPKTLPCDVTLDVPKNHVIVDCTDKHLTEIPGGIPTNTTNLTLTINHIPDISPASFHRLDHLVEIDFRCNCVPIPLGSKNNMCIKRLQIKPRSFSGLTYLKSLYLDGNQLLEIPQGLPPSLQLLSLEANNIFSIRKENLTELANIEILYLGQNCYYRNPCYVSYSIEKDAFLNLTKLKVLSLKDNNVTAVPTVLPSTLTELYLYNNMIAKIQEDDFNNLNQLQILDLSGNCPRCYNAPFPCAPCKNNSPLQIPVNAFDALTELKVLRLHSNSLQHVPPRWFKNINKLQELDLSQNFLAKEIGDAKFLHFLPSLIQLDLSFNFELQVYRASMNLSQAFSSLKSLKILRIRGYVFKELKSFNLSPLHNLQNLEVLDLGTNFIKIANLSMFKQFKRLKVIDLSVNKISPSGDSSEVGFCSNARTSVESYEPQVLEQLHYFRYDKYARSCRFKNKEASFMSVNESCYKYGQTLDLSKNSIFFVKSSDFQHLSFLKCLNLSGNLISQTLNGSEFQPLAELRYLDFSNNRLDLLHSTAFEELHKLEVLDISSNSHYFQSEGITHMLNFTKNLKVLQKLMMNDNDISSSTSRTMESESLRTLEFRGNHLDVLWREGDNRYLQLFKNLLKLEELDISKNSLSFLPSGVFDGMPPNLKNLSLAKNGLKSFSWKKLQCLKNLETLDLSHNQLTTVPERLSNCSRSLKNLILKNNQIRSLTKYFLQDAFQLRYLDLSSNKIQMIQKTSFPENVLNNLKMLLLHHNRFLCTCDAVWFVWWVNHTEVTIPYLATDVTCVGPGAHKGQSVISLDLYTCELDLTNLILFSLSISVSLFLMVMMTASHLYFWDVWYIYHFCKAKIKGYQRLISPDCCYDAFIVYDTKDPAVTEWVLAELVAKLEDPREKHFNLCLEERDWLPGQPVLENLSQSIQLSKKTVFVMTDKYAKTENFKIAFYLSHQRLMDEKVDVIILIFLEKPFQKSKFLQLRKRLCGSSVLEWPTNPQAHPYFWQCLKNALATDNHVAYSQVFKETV
Experimental Details: TLR7 human PBMC cell-based assay (antagonist, GS-986 stimulated cytokine release)
Experimental Setup: human PBMCs; TLR7 agonist GS-986 400 nM, 6 hours; cytokines (IL-6 and IFNα) in supernatant; read-out: TLR-7 EC50
pEC50: −log10 of the molar value.
Property Label: pEC50

I. Cc1cc(-c2[nH]c3cc(C(=O)N(C)C4CCC(N5CC6(C5)CS(=O)(=O)C6)CC4)sc3c2C(C)C)cn2ncnc12 (stereo not drawn) [Example 252]
II. CC(C)c1c(-c2ccc3ncnn3c2)[nH]c2cc(C(=O)N3CCNCC3)sc12 [Example 66]
Record comparison, field pEC50: mark the lower of I and II . Please indicate the selected item by its label.
II
(II: 7.59, I: 8.02)
